The measurements presented in this section are drawn from patent US20210380703A1.

Below, each of the binders is paired with its reported optical density value.
target: mouse ACVR2A (mouse, UniProt P27038 20-135, limits assumed); also: test concentration or dose not given here
Sequence (P27038 20-135 limits assumed): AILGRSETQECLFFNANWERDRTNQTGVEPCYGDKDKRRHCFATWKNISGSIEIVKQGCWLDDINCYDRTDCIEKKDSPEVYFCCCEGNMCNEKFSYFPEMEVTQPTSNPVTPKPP
assay-remarks: ELISA
Just the number in OD, nothing appended.

{"binder": "370_D07 (antibody, V domains shown, VH and VL only) VH: EVQLLESGGGLVQPGGSLRLSCAASGFTFSSYGMNWVRQAPGKGLEWVSNINYNSGYTGYADSVKGRFTISRDNSKNTLYLQMNSLRAEDTAVYYCARSATWHDTHLDYWGQGTLVTVSS VL: DIQMTQSPSSLSASVGDRVTITCRASQSILSYVNWYQQKPGKAPKLVIYAATSLASGVPSRFSGSGSGTDFTLTISSLQPEDFATYYCQQSYESPLTFGGGTKVEIK", "readout-unit": "OD", "optical density": 3.14}
{"binder": "367_H04 (antibody, V domains shown, VH and VL only) VH: EVQLLESGGGLVQPGGSLRLSCAASGFTFSSYSMNWVRQAPGKGLEWVSSINYNGGYTSYADSVKGRFTISRDNSKNTLYLQMNSLRAEDTAVYYCARSATWHDTHLDYWGQGTLVTVSS VL: DIQMTQSPSSLSASVGDRVTITCRASQSILTYVNWYQQKPGKAPKLLIYAATSRHSGVPSRFSGSGSGTDFTLTISSLQPEDFATYYCQQSDNNPLTFGGGTKVEIK", "readout-unit": "OD", "optical density": 1.85}
{"binder": "365_D06 (antibody, V domains shown, VH and VL only) VH: EVQLLESGGGLVQPGGSLRLSCAASGFTFDSYSMNWVRQAPGKGLEWVSNINYNGGYTSYADSVKGRFTISRDNSKNTLYLQMNSLRAEDTAVYYCARSATWHDTHLDYWGQGTLVTVSS VL: DIQMTQSPSSLSASVGDRVTITCRASQSILTYVNWYQQKPGKAPKLLIYAATSRASGVPSRFSGSGSGTDFTLTISSLQPEDFATYYCQQSYSLPLTFGGGTKVEIK", "readout-unit": "OD", "optical density": 3.08}
{"binder": "373_H12 (antibody, V domains shown, VH and VL only) VH: EVQLLESGGGLVQPGGSLRLSCAASGFTFSDYSMNWVRQAPGKGLEWVSGINYNSGYKGYADSVKGRFTISRDNSKNTLYLQMNSLRAEDTAVYYCARSATWHDTHLDYWGQGTLVTVSS VL: DIQMTQSPSSLSASVGDRVTITCRASQSILTYLNWYQQKPGKAPKLLIYAATSRASGVPSRFSGSGSGTDFTLTISSLQPEDFATYYCQQSYNSPLTFGGGTKVEIK", "readout-unit": "OD", "optical density": 2.98}

Fill in the blank: the reported optical density of 369_A01 (antibody, V domains shown, VH and VL only) VH: EVQLLESGGGLVQPGGSLRLSCAASGFTFDSYSMNWVRQAPGKGLEWVSGINYNSGYKGYADSVKGRFTISRDNSKNTLYLQMNSLRAEDTAVYYCARSATWHDTHLDYWGQGTLVTVSS VL: DIQMTQSPSSLSASVGDRVTITCRASQSILTYVNWYQQKPGKAPKLVIYAATSLASGVPSRFSGSGSGTDFTLTISSLQPEDFATYYCQQSYELPLTFGGGTKVEIK is ____. 3.66
